Taken from patent US20240041042A1.

Test system: Setaria viridis (SETVI)
METHOD SUMMARY: Pre-emergence herbicidal action against SETVI
Format: in vivo
REPORTED CONDITIONS: dosage 320 g/ha
READOUT KIND: Pre-emergence action against SETVI in % (%)

[
  {
    "SUBSTANCE SMILES": "C[C@@H](Oc1nn(-c2ncccc2F)c(-c2ccc(F)nc2)c1C1CC1)C(=O)O",
    "READOUT KIND": "Pre-emergence action against SETVI in %",
    "MEASURED": 100
  },
  {
    "SUBSTANCE SMILES": "CCOC(=O)CN(C)S(=O)(=O)NC(=O)COc1nn(-c2ncccc2F)c(-c2ccc(F)nc2)c1Br",
    "READOUT KIND": "Pre-emergence action against SETVI in %",
    "MEASURED": 100
  },
  {
    "SUBSTANCE SMILES": "COC(=O)[C@@H](C)Oc1nn(-c2nc(F)ccc2F)c(-c2cncc(F)c2)c1Br",
    "READOUT KIND": "Pre-emergence action against SETVI in %",
    "MEASURED": 100
  },
  {
    "SUBSTANCE SMILES": "CCOC(=O)COc1nn(-c2ncccc2C(F)(F)F)c(-c2cncc(F)c2)c1I",
    "READOUT KIND": "Pre-emergence action against SETVI in %",
    "MEASURED": 80
  },
  {
    "SUBSTANCE SMILES": "COC(=O)COc1nn(-c2ncccc2F)c(-c2ccc(F)nc2)c1C1CC1",
    "READOUT KIND": "Pre-emergence action against SETVI in %",
    "MEASURED": 100
  },
  {
    "SUBSTANCE SMILES": "C[C@@H](Oc1nn(-c2nc(F)ccc2F)c(-c2cncc(F)c2)c1Cl)C(=O)O",
    "READOUT KIND": "Pre-emergence action against SETVI in %",
    "MEASURED": 100
  },
  {
    "SUBSTANCE SMILES": "CCOC(=O)COc1nn(-c2ccccn2)c(-c2ccc(F)nc2)c1F",
    "READOUT KIND": "Pre-emergence action against SETVI in %",
    "MEASURED": 90
  },
  {
    "SUBSTANCE SMILES": "O=C(O)CSc1nn(-c2ccccn2)c(-c2cncc(F)c2)c1C1CC1",
    "READOUT KIND": "Pre-emergence action against SETVI in %",
    "MEASURED": 90
  }
]

###

Tested on: Polygonum convolvulus (POLCO)
METHOD SUMMARY: Post-emergence herbicidal action against POLCO
Type: in vivo
REPORTED CONDITIONS: dosage 320 g/ha
Recorded Post-emergence action against POLCO in % for the following molecules

[
  {
    "MOLECULE": "CCOC(=O)COc1nn(-c2ccccn2)c(-c2ccc(F)nc2)c1[N+](=O)[O-]",
    "Post-emergence action against POLCO in %, %": 80
  },
  {
    "MOLECULE": "COC(=O)[C@@H](C)Oc1nn(-c2ncccc2F)c(-c2cncc(F)c2)c1Cl",
    "Post-emergence action against POLCO in %, %": 90
  },
  {
    "MOLECULE": "COC(=O)CCOC(=O)C(C)Oc1nn(-c2ccccn2)c(-c2ccc(F)nc2)c1C(F)(F)F (centres unmarked)",
    "Post-emergence action against POLCO in %, %": 80
  },
  {
    "MOLECULE": "COC(=O)CCOC(=O)COc1nn(-c2ccccn2)c(-c2ccc(F)nc2)c1Cl",
    "Post-emergence action against POLCO in %, %": 80
  },
  {
    "MOLECULE": "O=C(O)COc1nn(-c2nc(F)ccc2F)c(-c2ccc(F)nc2)c1Br",
    "Post-emergence action against POLCO in %, %": 80
  },
  {
    "MOLECULE": "CCOC(=O)COc1nn(-c2ncccc2C)c(-c2ccc(F)nc2)c1Br",
    "Post-emergence action against POLCO in %, %": 90
  },
  {
    "MOLECULE": "CC(C)OC(=O)COc1nn(-c2ncccc2F)c(-c2ccc(F)nc2)c1C1CC1",
    "Post-emergence action against POLCO in %, %": 90
  },
  {
    "MOLECULE": "CCOC(=O)COc1nn(-c2ccccn2)c(-c2ccc(Cl)nc2)c1Cl",
    "Post-emergence action against POLCO in %, %": 80
  },
  {
    "MOLECULE": "COC(=O)C(C)COC(=O)C(C)Oc1nn(-c2ccccn2)c(-c2ccc(F)nc2)c1Cl (centres unmarked)",
    "Post-emergence action against POLCO in %, %": 80
  },
  {
    "MOLECULE": "CCOC(=O)COc1nn(-c2ccccn2)c(-c2ccc(F)nc2)c1F",
    "Post-emergence action against POLCO in %, %": 80
  },
  {
    "MOLECULE": "COC(=O)[C@H](C)COC(=O)COc1nn(-c2ccccn2)c(-c2cncc(F)c2)c1Br",
    "Post-emergence action against POLCO in %, %": 80
  },
  {
    "MOLECULE": "COC(=O)C(C)NC(=O)[C@@H](C)Oc1nn(-c2ccccn2)c(-c2cncc(F)c2)c1Br (some centres unmarked)",
    "Post-emergence action against POLCO in %, %": 80
  },
  {
    "MOLECULE": "CCOC(=O)COc1nn(-c2nc(F)ccc2F)c(-c2cncc(F)c2)c1Br",
    "Post-emergence action against POLCO in %, %": 80
  },
  {
    "MOLECULE": "COC(=O)COc1nn(-c2nc(F)ccc2F)c(-c2ccc(F)nc2)c1Br",
    "Post-emergence action against POLCO in %, %": 80
  },
  {
    "MOLECULE": "COC(=O)COc1nn(-c2cccnc2C)c(-c2cncc(F)c2)c1Cl",
    "Post-emergence action against POLCO in %, %": 90
  },
  {
    "MOLECULE": "COC(=O)CNC(=O)[C@@H](C)Oc1nn(-c2ccccn2)c(-c2cncc(F)c2)c1Br",
    "Post-emergence action against POLCO in %, %": 80
  },
  {
    "MOLECULE": "COC(=O)[C@@H](C)Oc1nn(-c2nc(F)ccc2F)c(-c2ccc(F)nc2)c1C1CC1",
    "Post-emergence action against POLCO in %, %": 80
  }
]

###

Recorded Pre-emergence action against BRSNW in % for the following compounds
System: Brassica napus (BRSNW)
Format: in vivo
REPORTED CONDITIONS: 80 g/ha, crop plant compatibility, in comparison to untreated controls
READOUT KIND: Pre-emergence action against BRSNW in % (%)

[
  {
    "COMPOUND": "COC(=O)C=CC(C)NC(=O)COc1nn(-c2ccccn2)c(-c2ccc(F)nc2)c1Br (centres unmarked) [Example I-297]",
    "ASSAYED TARGET": "Brassica napus (BRSNW)",
    "READOUT KIND": "Pre-emergence action against BRSNW in %",
    "MEASURED": 20
  },
  {
    "COMPOUND": "CCOC(=O)C(C)Oc1nn(-c2ccccn2)c(-c2ccc(F)nc2)c1I (centres unmarked)",
    "ASSAYED TARGET": "Brassica napus (BRSNW)",
    "READOUT KIND": "Pre-emergence action against BRSNW in %",
    "MEASURED": 10
  },
  {
    "COMPOUND": "CCOC(=O)C[S+]([O-])c1nn(-c2ccccn2)c(-c2cncc(F)c2)c1Cl (centres unmarked)",
    "ASSAYED TARGET": "Brassica napus (BRSNW)",
    "READOUT KIND": "Pre-emergence action against BRSNW in %",
    "MEASURED": 0
  },
  {
    "COMPOUND": "COC(=O)CNC(=O)COc1nn(-c2ccccn2)c(-c2ccc(F)nc2)c1C1CC1",
    "ASSAYED TARGET": "Brassica napus (BRSNW)",
    "READOUT KIND": "Pre-emergence action against BRSNW in %",
    "MEASURED": 20
  },
  {
    "COMPOUND": "O=C(O)CNC(=O)COc1nn(-c2ccnc(F)c2)c(-c2ccc(F)nc2)c1Br",
    "ASSAYED TARGET": "Brassica napus (BRSNW)",
    "READOUT KIND": "Pre-emergence action against BRSNW in %",
    "MEASURED": 0
  },
  {
    "COMPOUND": "CCOC(=O)COc1nn(-c2ncccc2OC)c(-c2ccc(F)nc2)c1Br",
    "ASSAYED TARGET": "Brassica napus (BRSNW)",
    "READOUT KIND": "Pre-emergence action against BRSNW in %",
    "MEASURED": 0
  },
  {
    "COMPOUND": "COc1cccnc1-n1nc(OCC(=O)O)c(Cl)c1-c1ccc(F)nc1",
    "ASSAYED TARGET": "Brassica napus (BRSNW)",
    "READOUT KIND": "Pre-emergence action against BRSNW in %",
    "MEASURED": 0
  },
  {
    "COMPOUND": "COC(=O)C=CC(C)NC(=O)COc1nn(-c2ccccn2)c(-c2ccc(F)nc2)c1Br (centres unmarked) [Example I-345]",
    "ASSAYED TARGET": "Brassica napus (BRSNW)",
    "READOUT KIND": "Pre-emergence action against BRSNW in %",
    "MEASURED": 20
  }
]
